# Protocol summary: 384-well plate pilot, post-Golgi transport modulator project, inhibition of yeast transport mutant growth (AID 636); further: test concentration not given here
# Experimental conditions: absorbance 615 nm, about 18 h, stronger effect = higher value
# inhibition values compiled below
Respond numerically; units are % and should not be typed.

Worked cases, inhibition given:
Molecule | Quantity name | Test result
CC(=O)NC1CC2CCCC(C1)N2CC(=O)Nc1ccccc1 (centres undefined) | inhibition | 0.13
N#C/C(C(=O)NCc1ccco1)=C1/SC(Cc2ccc(F)cc2)C(=O)N1c1ccccc1 (centres undefined) | inhibition | -3.68
O=C(Cn1nc(-c2ccc(Cl)cc2)ccc1=O)NCCCN1CCN(Cc2ccccc2)CC1 | inhibition | -0.26
Cc1ccnc(NS(=O)(=O)c2ccc(N=CC3=C(O)CC(C)(C)CC3=O)cc2)n1 | inhibition | 0.92
CCOc1cc(C2Nc3ccccc3C(=O)N2c2ccccc2OC)ccc1O (centres undefined) | inhibition | -4.59
Cc1ccccc1-n1nc(C)c2cc(C(=O)NCc3cccnc3)sc21 | inhibition | -1.95

Give the reported inhibition for this molecule. "CCOC(=O)CNC(=O)Cn1cnc2c(nnn2-c2cccc(Cl)c2)c1=O" -0.53

Specify measured inhibition for O=C(NC1CCCc2ccccc21)C1CCN(c2nnc(-n3cccc3)s2)CC1 (centres undefined) . 1.41

Give recorded inhibition. Cc1ccc2cc(CN(CC(C)C)C(=O)C3CCCO3)c(=O)[nH]c2c1 (centres undefined) -2.5

Provide inhibition value for the following molecule: "COC(=O)/C=c1/s/c(=C(/C#N)C(=O)N2CCOCC2)n(-c2ccccc2)c1=O" -7.4

Using the record for "CC(=O)Nc1c(I)c(NC(C)=O)c(I)c(C(=O)O)c1I" , state its measured inhibition. -0.13

Write down inhibition measured for item Nc1nc(Nc2cccc3ccccc23)nc(C2CCCC2=O)n1 (centres undefined) -4.46

Consider the molecule "O=C(NCCCN1CCN(Cc2ccccc2)CC1)C1CCN(c2nnc(-n3cccc3)s2)CC1" . State its measured inhibition. -4.93
